The reported numbers originate from the Human Domainome abundance scans (Beltran et al. 2025).

The following variants are shown together with reported abundance fitness values.
B1: Glucocorticoid receptor, residues 419 to 494; numbered along this chain, P04150 (parent)
chain: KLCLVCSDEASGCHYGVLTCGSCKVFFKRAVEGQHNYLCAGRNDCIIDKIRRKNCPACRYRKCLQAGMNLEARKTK

variants of: B1; assay: abundance fitness (aPCA) (normalised: wild type 0, dead -1); higher = more abundant; growth selection in yeast, the domain comes from the species named; conditions: Homo sapiens
Could you respond with only the numeric value?

The cases that follow already have their abundance fitness on record.
| mutation id | abundance fitness |
| --- | --- |
| E32P | -0.388 |
| T75A | 0.029 |

We now examine a further variant.
Entry C39W has what abundance fitness?
-0.992
